# target or system: recombinant full-length PfCSP (Plasmodium falciparum circumsporozoite protein, strain NF54) (Plasmodium falciparum NF54, UniProt P19597)
# Sequence (P19597 20-375): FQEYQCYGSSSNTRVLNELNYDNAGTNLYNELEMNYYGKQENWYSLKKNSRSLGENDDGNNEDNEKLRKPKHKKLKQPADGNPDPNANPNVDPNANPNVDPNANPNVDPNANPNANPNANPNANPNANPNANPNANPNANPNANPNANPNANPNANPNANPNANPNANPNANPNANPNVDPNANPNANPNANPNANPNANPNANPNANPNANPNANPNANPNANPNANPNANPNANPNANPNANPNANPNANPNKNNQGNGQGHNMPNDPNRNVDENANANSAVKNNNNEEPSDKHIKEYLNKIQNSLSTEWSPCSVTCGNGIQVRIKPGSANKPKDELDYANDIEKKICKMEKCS
reported property: binding result

binder	test value
CL-512319 (antibody, V domains shown) VH: QVQLVESGGGVVQPGRSLRLSCAASGFTFSNFGMHWVRQAPGKGLEWVAVIWYDGSHKFYADSLKGRFTISRDNSKNTLYLQMNNLRAEDTAVYYCARAHPVTTDYDKYGMDVWGQGTTVTVSS VL: DIQMTQSPSTLSSSVGDRVTITCRASQSISIWLAWIQQKPGKAPKLLIYKASSLESGVPSRFSGSGSGTEFTLTISSLQPDDFATYYCQQFYSYWTFGLGTKVEIK	binds
CL-513069 (antibody, V domains shown) VH: QVQLVESGGGVVQPGKSLRLSCEASGFTFSNYGMHWVRQAPGKGLDWVAIIWHDGGNKFYADSVRGRFTISRDNSKNTLFLQMNSLRAEDSAVYYCARVFDFRDSCYTMDVWGQGTTVTVSS VL: DIQMTQSPSTLSASVGDRVTITCRASQSISSWLAWYQQKPGKAPKLLIYKASSLESGVPSRFSGSGSGTEFSLTISSLQPDDFATYYCQQYTRYWTFGQGTRVEIQ	binds
